Counter-ions that a name gives are not always drawn.
# pIC50 measurements, system: JAK2 tyrosine kinase (Homo sapiens, UniProt O60674)
# Sequence (O60674 whole entry): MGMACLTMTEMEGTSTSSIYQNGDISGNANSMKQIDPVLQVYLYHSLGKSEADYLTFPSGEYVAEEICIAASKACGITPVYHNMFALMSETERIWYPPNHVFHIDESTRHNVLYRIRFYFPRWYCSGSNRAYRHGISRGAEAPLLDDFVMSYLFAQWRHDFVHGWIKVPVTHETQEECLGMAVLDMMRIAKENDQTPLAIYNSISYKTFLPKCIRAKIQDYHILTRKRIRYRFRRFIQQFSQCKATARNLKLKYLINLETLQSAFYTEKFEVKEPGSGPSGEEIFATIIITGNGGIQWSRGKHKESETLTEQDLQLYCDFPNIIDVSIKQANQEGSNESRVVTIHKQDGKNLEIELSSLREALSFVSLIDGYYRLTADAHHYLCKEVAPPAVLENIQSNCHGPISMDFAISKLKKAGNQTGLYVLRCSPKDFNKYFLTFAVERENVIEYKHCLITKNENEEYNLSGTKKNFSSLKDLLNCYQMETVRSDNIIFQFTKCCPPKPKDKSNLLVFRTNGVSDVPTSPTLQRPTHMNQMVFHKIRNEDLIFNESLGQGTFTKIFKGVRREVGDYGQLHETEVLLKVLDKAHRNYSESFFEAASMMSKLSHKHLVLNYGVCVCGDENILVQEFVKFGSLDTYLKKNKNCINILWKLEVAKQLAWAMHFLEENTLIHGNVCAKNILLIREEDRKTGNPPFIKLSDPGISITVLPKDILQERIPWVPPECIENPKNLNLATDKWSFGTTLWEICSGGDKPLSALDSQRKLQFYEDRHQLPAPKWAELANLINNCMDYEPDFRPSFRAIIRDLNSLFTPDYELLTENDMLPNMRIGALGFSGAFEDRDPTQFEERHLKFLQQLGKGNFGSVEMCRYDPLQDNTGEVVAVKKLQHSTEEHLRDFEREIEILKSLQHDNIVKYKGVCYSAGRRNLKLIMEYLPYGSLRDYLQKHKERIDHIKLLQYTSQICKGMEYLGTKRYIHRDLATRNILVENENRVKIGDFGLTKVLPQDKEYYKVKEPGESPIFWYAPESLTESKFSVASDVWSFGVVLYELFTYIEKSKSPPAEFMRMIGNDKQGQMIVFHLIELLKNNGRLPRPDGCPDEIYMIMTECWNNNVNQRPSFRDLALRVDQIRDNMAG
Numbers only, as −log10 of the molar value.

Provide reported pIC50 for each item, in the same order as listed.
1. C[C@H](Nc1nc(Nc2cnccn2)cc(N2CC(C(=O)N3CCCCC3)C2)n1)c1ccc(F)cc1
2. COc1ncc(-c2cc(Nc3cnccn3)nc(N[C@@H](C)c3ccc(F)cc3)n2)s1
3. CC(C)C1(O)CN(c2cc(Nc3cnccn3)nc(N[C@@H](C)c3ccc(F)cc3)n2)C1 [Example 201, hydrochloride]
4. C[C@H](Nc1cc(NS(C)(=O)=O)cc(Nc2cnccn2)n1)c1ccc(F)cc1 [Example 209, hydrochloride]
5. C[C@H](Nc1cc(-c2cnn(C)c2)cc(Nc2cnccn2)n1)c1ccc(F)cc1 [Example 4, hydrochloride]

Result ::
1. 8.92
2. 8.23
3. 9.39
4. 8.15
5. 9.23

====

- MEASURED_TARGET: UniProt O60674
Structures can show the parent of a compound that is named as a salt.
READOUT_LABEL: pIC50
Give bare numbers, as −log10 of the molar value.

# count of solved cases: 4
C[C@H](Nc1nc(Nc2cnccn2)cc(N2CC(C#N)C2)n1)c1ccc(F)cc1 [Example 178]: 9.00
C[C@H](Nc1nc(Nc2cnccn2)cc(N2CC(C)(O)C2)n1)c1ccc(F)cc1 [Example 184, hydrochloride]: 9.04
C[C@H](Nc1cc(N2CC(O)(C3CC3)C2)cc(Nc2cnccn2)n1)c1ccc(F)cc1 [Example 203, hydrochloride]: 8.35
C[C@H](Nc1cc(C2CCN(S(C)(=O)=O)CC2)cc(Nc2cnccn2)n1)c1ccc(F)cc1 [Example 215]: 8.64

Would you mind giving pIC50 for every molecule in the list below?
1. CCOCCNC(=O)c1cc(Nc2cnccn2)nc(N[C@@H](C)c2ccc(F)cc2)c1 [Example 173]
2. C[C@H](Nc1nc(Nc2cnccn2)cc(N2CC(O)C2)n1)c1ccc(F)cc1 [Example 72, hydrochloride]

Result ::
1: 8.82; 2: 9.02

====

Form: system (JAK2 tyrosine kinase (Homo sapiens, UniProt O60674)), quantity (pIC50), values below.
Structures can show the parent of a compound that is named as a salt.
Answers are plain numbers, as −log10 of the molar value.

Reference set, count: 3
C[C@H](Nc1nc(Nc2cnccn2)cc(N2CCNC2=O)n1)c1ccc(F)cc1 [Example 21, hydrochloride]: 8.06
C[C@H](Nc1nc(Nc2cnccn2)cc(N2CC(F)(F)C2)n1)c1ccc(F)cc1 [Example 3, hydrochloride]: 8.92
C[C@H](Nc1nc(Nc2cnccn2)cc(N2CCC(C(N)=O)CC2)n1)c1ccc(F)cc1 [Example 56, hydrochloride]: 9.10

Query :: Form field: reported pIC50 of C[C@H](Nc1nc(Nc2cnccn2)cc(N2CCOCC2)n1)c1ccc(F)cc1 [Example 31, maleate]
Result :: 9.39

====

- MEASURED_TARGET: JAK2 tyrosine kinase (Homo sapiens)
Counter-ions that a name gives are not always drawn.
Would you kindly list pIC50 for each of these compounds?
Answers are plain numbers, as −log10 of the molar value.

CC(=O)N[C@H]1CCN(c2cc(Nc3cnccn3)nc(N[C@@H](C)c3ccc(F)cc3)n2)C1 [Example 33, maleate]: 9.40
C[C@H](Nc1cc(N2CC(O)(C(F)(F)F)C2)cc(Nc2cnccn2)n1)c1ccc(F)cc1 [Example 206, hydrochloride]: 8.00
C[C@H](Nc1nc(Nc2cnccn2)cc(N2CC(C(=O)NC3CC3)C2)n1)c1ccc(F)cc1: 8.80
C[C@H](Nc1nc(Nc2cnccn2)cc(N2CC(C(=O)N(C)C)C2)n1)c1ccc(F)cc1: 9.02
C[C@H](Nc1cc(-c2ccc(S(C)(=O)=O)cc2)cc(Nc2cnccn2)n1)c1ccc(F)cc1 [Example 36, hydrochloride]: 8.55

// input: 2 compounds below; output: pIC50 for each
1. C[C@H](Nc1nc(Nc2cnccn2)cc(N2C[C@H](O)[C@@H](O)C2)n1)c1ccc(F)cc1
2. COC1(C2CC2)CN(c2cc(Nc3cnccn3)nc(N[C@@H](C)c3ccc(F)cc3)c2)C1 [Example 211, hydrochloride]

Result ::
[9.17, 8.25]

====

# IC50 per entry for JAK2 tyrosine kinase (Homo sapiens, UniProt O60674)
Counter-ions that a name gives are not always drawn.
Numbers only, in nM.

Solved entries (count: 4):
C[C@H](Nc1cccc(Nc2cnccn2)n1)c1ccc(F)cc1 [Example 117, dihydrochloride]: 2.7
C[C@H](Nc1nc(Nc2cnccn2)cc(N2CCC(NS(C)(=O)=O)C2)n1)c1ccc(F)cc1 (stereo partly shown) [Example 60, hydrochloride]: 0.71
C[C@H](Nc1nc(Nc2cnccn2)cc(N2CCC3(CC2)OCCO3)n1)c1ccc(F)cc1: 1.6
C[C@H](Nc1nc(Nc2cnccn2)cc(N2CCN(S(C)(=O)=O)CC2)n1)c1ccc(Cl)cc1 [Example 100, hydrochloride]: 0.52

Look at each molecule and report its IC50.
1. C[C@H](Nc1nc(Nc2cnccn2)cc(-c2ccc(O)nc2)n1)c1ccc(F)cc1
2. C[C@H](Nc1nc(NCc2ccco2)cc(Nc2cnccn2)n1)c1ccc(F)cc1 [Example 103, hydrochloride]
3. C[C@H](Nc1cc(OCCO)cc(Nc2cnccn2)n1)c1ccc(F)cc1 [Example 12, hydrochloride]

Result ::
0.27
4.1
0.92

====

Answer each item with its documented pIC50.
- MEASURED_TARGET: UniProt P52333
Counter-ions that a name gives are not always drawn.
Answers are plain numbers, as −log10 of the molar value.

Worked examples follow.
C[C@H](Nc1cc(C(=O)NCCO)cc(Nc2cnccn2)n1)c1ccc(F)cc1 [Example 159]: 6.77
C[C@H](Nc1nc(Nc2cnccn2)cc(N2C[C@H](O)CC2=O)n1)c1ccc(F)cc1 [Example 67]: 6.33

Answer for every listed entry: what is its pIC50? The entries follow.
1. CNC(=O)C1CN(c2cc(Nc3cnccn3)nc(N[C@@H](C)c3ccc(F)cc3)n2)C1 [Example 174]
2. C[C@H](Nc1nc(Nc2cnccn2)cc(N2CCC2)n1)c1ccc(F)cc1 [Example 43]
3. C[C@H](Nc1nc(Nc2cnccn2)cc(-c2ncon2)n1)c1ccc(F)cc1 [Example 146, hydrochloride]
4. C[C@H](Nc1cc(N2CC(O)C2)cc(Nc2cnccn2)n1)c1ccc(F)cc1 [Example 202, hydrochloride]
5. C[C@H](Nc1nc(Nc2cnccn2)cc(N2CCC(NS(C)(=O)=O)C2)n1)c1ccc(F)cc1 (some centres unmarked) [Example 60, hydrochloride]
6. C[C@H](Nc1nc(Nc2cnccn2)cc(N2CCC(C(N)=O)CC2)n1)c1ccc(F)cc1 [Example 56, hydrochloride]

Result ::
1. 7.33
2. 6.89
3. 5.85
4. 6.33
5. 7.55
6. 7.62

====

- MEASURED_TARGET: JAK2 tyrosine kinase (Homo sapiens)
Counter-ions that a name gives are not always drawn.
just bin them by IC50: LOW: < 1 nM; MID: ≥ 1 nM and < 3 nM; HIGH: ≥ 3 nM

C[C@H](Nc1nc(Nc2cnccn2)cc(N2CCC[C@H]2C(N)=O)n1)c1ccc(F)cc1 [Example 64, hydrochloride]: HIGH
COC1(C(C)C)CN(c2cc(Nc3cnccn3)nc(N[C@@H](C)c3ccc(F)cc3)c2)C1 [Example 212, hydrochloride]: HIGH
C[C@H](Nc1nc(Nc2cnccn2)cc(N[C@@H](CO)C(N)=O)n1)c1ccc(F)cc1: MID
C[C@H](Nc1cc(N2CC(F)(F)C2)cc(Nc2cnccn2)n1)c1ccc(F)cc1 [Example 207, hydrochloride]: HIGH
C[C@H](Nc1nc(Nc2cnccn2)cc(-c2ccc(S(C)(=O)=O)cc2)n1)c1ccc(F)cc1 [Example 10, hydrochloride]: LOW
CC(=O)N[C@H]1CCN(c2cc(Nc3cnccn3)nc(N[C@@H](C)c3ccc(F)cc3)n2)C1 [Example 2, hydrochloride]: LOW

Query :: Class for `C[C@H](Nc1nc(Nc2cnccn2)ccc1C(=O)N(C)C)c1ccc(F)cc1` ?
Result :: HIGH

Query :: Ok, now `C[C@H](Nc1cc(NC(N)=O)cc(Nc2cnccn2)n1)c1ccc(F)cc1`
Result :: HIGH

====

- MEASURED_TARGET: JAK3 tyrosine kinase (Homo sapiens, UniProt P52333)
- Sequence (P52333 whole entry): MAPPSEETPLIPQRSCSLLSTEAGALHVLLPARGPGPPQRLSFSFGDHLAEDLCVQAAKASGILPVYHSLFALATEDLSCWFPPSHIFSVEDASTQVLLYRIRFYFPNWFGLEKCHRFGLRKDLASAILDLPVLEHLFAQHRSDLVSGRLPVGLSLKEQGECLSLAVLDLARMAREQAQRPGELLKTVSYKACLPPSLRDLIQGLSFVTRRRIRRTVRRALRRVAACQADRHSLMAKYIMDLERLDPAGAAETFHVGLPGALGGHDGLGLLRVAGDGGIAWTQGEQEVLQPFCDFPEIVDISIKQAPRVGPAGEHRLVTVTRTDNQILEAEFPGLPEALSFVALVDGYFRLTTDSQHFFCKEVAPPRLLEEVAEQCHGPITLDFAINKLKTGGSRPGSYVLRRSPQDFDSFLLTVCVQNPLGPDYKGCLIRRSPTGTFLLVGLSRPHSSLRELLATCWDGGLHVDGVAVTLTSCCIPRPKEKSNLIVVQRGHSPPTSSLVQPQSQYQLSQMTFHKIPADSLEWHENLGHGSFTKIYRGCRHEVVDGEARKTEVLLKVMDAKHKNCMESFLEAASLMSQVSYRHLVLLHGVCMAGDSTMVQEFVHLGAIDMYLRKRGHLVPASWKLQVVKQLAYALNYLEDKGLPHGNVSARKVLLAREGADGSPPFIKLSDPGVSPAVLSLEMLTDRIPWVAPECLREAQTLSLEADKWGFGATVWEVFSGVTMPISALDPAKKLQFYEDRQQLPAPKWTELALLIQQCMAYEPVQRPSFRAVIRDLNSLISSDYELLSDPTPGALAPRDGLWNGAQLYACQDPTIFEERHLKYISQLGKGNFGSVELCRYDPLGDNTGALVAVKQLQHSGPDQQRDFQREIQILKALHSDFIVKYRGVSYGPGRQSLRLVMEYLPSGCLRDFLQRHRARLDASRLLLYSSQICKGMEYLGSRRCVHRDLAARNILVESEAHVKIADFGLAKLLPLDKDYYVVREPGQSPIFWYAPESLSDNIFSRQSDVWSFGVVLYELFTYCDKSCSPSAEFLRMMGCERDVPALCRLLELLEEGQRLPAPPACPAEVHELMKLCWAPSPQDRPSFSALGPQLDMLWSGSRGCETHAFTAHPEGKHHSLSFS
Counter-ions that a name gives are not always drawn.
READOUT_LABEL: IC50 (nM)
Numbers only, in nM.

Sample answers from the record:
COCCn1cc(-c2cc(Nc3cnccn3)nc(N[C@@H](C)c3ccc(F)cc3)c2)cn1: 36
C[C@H](Nc1nc(Nc2cnccn2)cc(-c2ccc(C(N)=O)cc2)n1)c1ccc(F)cc1 [Example 80, hydrochloride]: 60
CNS(=O)(=O)c1ccc(-c2cc(Nc3cnccn3)nc(N[C@@H](C)c3ccc(F)cc3)n2)cc1 [Example 135, hydrochloride]: 320
C[C@H](Nc1nc(Nc2cnccn2)cc(N2CC(O)(C3CC3)C2)n1)c1ccc(F)cc1 [Example 200, hydrochloride]: 26
C[C@H](Nc1cc(OC2CCOCC2)cc(Nc2cnccn2)n1)c1ccc(F)cc1 [Example 157, hydrochloride]: 150
C[C@H](Nc1cc(N2CCC(O)CC2)cc(Nc2cnccn2)n1)c1ccc(F)cc1: 380
C[C@H](Nc1nc(Nc2cnccn2)cc(N2CCC[C@@H]2CO)n1)c1ccc(F)cc1 [Example 70, hydrochloride]: 65
Cc1cn(-c2cc(Nc3cnccn3)nc(N[C@@H](C)c3ccc(F)cc3)c2)cn1 [Example 136, dihydrochloride]: 170

Hi team, please reply with IC50 for each item in this list.
1. C[C@H](Nc1cc(N2CCN(S(C)(=O)=O)CC2)cc(Nc2cnccn2)n1)c1ccc(F)cc1 [Example 124, hydrochloride]
2. COc1ncc(-c2cc(Nc3cnccn3)nc(N[C@@H](C)c3ccc(F)cc3)n2)s1

Result ::
66
390
